In this section we review reported IC50 values for a set of molecules.
- Tested on: P-Akt (S473)
- ASSAY_TEXT: Cell based AlphaLISA assay, inhibition of P-Akt (S473) (mTORC2 substrate phosphorylation) in MDA-MB-468 cells
- MEASUREMENT_CONDITIONS: Homo sapiens, MDA-MB-468, 4 h, AlphaLISA, two to four hours at 37° C., read-out: pIC50 for Inhibition of mTORC1 and mTORC2 Substrate Phosphorylation, p-AKT 1/2/3 -(S473) (converted)
ASSAY_ENDPOINT: IC50

- SMILES_INPUT: "CCO[C@@H]1C[C@@H]([C@H](C)C[C@@H]2CC[C@H](n3cc(CCCC(=O)NCCOCCOCCOCCC(=O)NCCOCCOCCOCCC(=O)NCCCCn4nc(-c5cc6cc(O)ccc6[nH]5)c5c(N)ncnc54)nn3)[C@H](OC)C2)OC(=O)[C@@H]2CCCCN2C(=O)C(=O)[C@]2(O)O[C@@H](CC[C@H]2C)C[C@H](OC)/C(C)=C/C=C/C=C/[C@@H](C)C[C@@H](C)C(=O)[C@H](OC)[C@H](O)/C(C)=C/[C@H]1C"
  REPORTED_RESULT: "> 1000 nM"
- SMILES_INPUT: "CO[C@H]1C[C@@H]2CC[C@@H](C)[C@@](O)(O2)C(=O)C(=O)N2CCCC[C@H]2C(=O)O[C@H]([C@H](C)C[C@@H]2CC[C@H](n3cc(-c4cnc(N5CCN(c6ncc(C(=O)NCCOCCOCCOCCOCCOCCC(=O)NCCCCn7nc(-c8cc9cc(O)ccc9[nH]8)c8c(N)ncnc87)cn6)CC5)nc4)nn3)[C@H](OC)C2)CC(=O)[C@H](C)/C=C(\\C)[C@@H](O)[C@@H](OC)C(=O)[C@H](C)C[C@H](C)/C=C/C=C/C=C/1C"
  REPORTED_RESULT: "> 1000 nM"
- SMILES_INPUT: "CO[C@H]1C[C@@H]2CC[C@@H](C)[C@@](O)(O2)C(=O)C(=O)N2CCCC[C@H]2C(=O)O[C@H]([C@H](C)C[C@@H]2CC[C@H](n3cc(COC(=O)NCCOCCOCCOCCC(=O)NCCOCCOCCC(=O)NCCCCn4nc(-c5cc6cc(O)ccc6[nH]5)c5c(N)ncnc54)nn3)[C@H](OC)C2)C/C(=N/OCc2ccccc2)[C@H](C)/C=C(\\C)[C@@H](O)[C@@H](OC)C(=O)[C@H](C)C[C@H](C)/C=C/C=C/C=C/1C"
  REPORTED_RESULT: "> 1000 nM"
